B1: Cytoplasmic polyadenylation element-binding protein 2, residues 513 to 575; numbered along this chain, Q7Z5Q1 (parent)
chain: KRVEVKPYVLDDQMCDECQGARCGGKFAPFFCANVTCLQYYCEFCWANIHSRAGREFHKPLVK

# Variants of: B1
# experiment notes: abundance fitness (aPCA) (normalised: wild type 0, dead -1); higher = more abundant; growth selection in yeast, the domain comes from the species named
# settings: Homo sapiens
Listing of entries alongside the reported abundance fitness.
Reply: number alone, nothing else.

Answered cases to consult:
F27S :: -0.022
V3P :: -0.028
T36Q :: -0.058
R22E :: -0.222

Prompt line: Quote abundance fitness reported for P7Q please.
Response line: -0.098
